Below: a set of entries, each annotated with reported Papp.
test.description: Apparent permeability of compound in human Caco2 cells
Format: ADME, cell-based
condition.set: Caco-2
measurement.type: Papp (nm/s)

>>> readout_value("Clc1cc2[nH]cnc2c(NCc2ccco2)n1")
76
>>> readout_value("c1coc(CNc2ncnc3[nH]cnc23)c1 [KINETIN]")
76
>>> readout_value("c1coc(CNc2ncnc3[nH]nnc23)c1")
76
>>> readout_value("c1coc(CNc2nccc3[nH]cnc23)c1")
76
>>> readout_value("c1coc(CNc2ccnc3[nH]cnc23)c1")
76
>>> readout_value("c1coc(CNc2ncnc3cc[nH]c23)c1")
76
>>> readout_value("c1coc(CNc2ncnc3ccsc23)c1")
76
>>> readout_value("c1coc(CNc2ncnc3sccc23)c1")
76
>>> readout_value("c1coc(CNc2ncnc3[nH]ccc23)c1")
76
>>> readout_value("c1coc(CNc2ccnc3ccnn23)c1")
76
>>> readout_value("Clc1nc(NCc2ccco2)c2[nH]cnc2n1")
76
>>> readout_value("Clc1nc(NCc2ccco2)c2[nH]ccc2n1")
76
>>> readout_value("c1coc(CNc2ncnc3cn[nH]c23)c1")
76
>>> readout_value("Clc1cc(NCc2ccco2)c2nc[nH]c2n1")
76

====

test.description: Apparent permeability of compound in MDCK-MDR1 cells
Format: ADME, cell-based, Canis lupus familiaris
condition.set: dog
measurement.type: Papp

>>> readout_value("c1coc(CNc2ncnc3occc23)c1")
"16.3 ×10⁻⁶ cm/s"
>>> readout_value("c1coc(CNc2ncnc3[nH]cnc23)c1")
"16.3 ×10⁻⁶ cm/s"
>>> readout_value("c1coc(CNc2ccnc3[nH]cnc23)c1")
"16.3 ×10⁻⁶ cm/s"
>>> readout_value("c1coc(CNc2nccc3[nH]cnc23)c1")
"16.3 ×10⁻⁶ cm/s"
>>> readout_value("c1coc(CNc2ncnc3[nH]nnc23)c1")
"16.3 ×10⁻⁶ cm/s"
>>> readout_value("c1coc(CNc2ncnc3ccsc23)c1")
"16.3 ×10⁻⁶ cm/s"
